test system: K24384-001-R-PDC complex spheroid growth; assay: Anticancer human tumor K24384-001-R-PDC patient-derived pancreatic adenocarcinoma cell line growth inhibition [AhR]; details: second compound 1 µM; first compound 0.1 µM; stronger effect = lower value
Binary label based on viability, T/C with cut-off 90%: below gives 1 (yes), not below gives 0 (no).

Query string: Lab note: viability, T/C threshold 90%. Does this compound come in strictly under it? CC(C)c1c(-c2ccccc2)nc2c(C#N)c[nH]n2c1=O + Cc1ccccc1N=Nc1ccc(NC(=O)c2ccnn2C)c(C)c1
Result string: 0 (no)

Query string: Answer whether the compound CC1COCCN1c1cc(-c2ccnn2C)c2ccnc(-c3ccn[nH]3)c2n1 (stereo not drawn) + Cc1cncc(-c2nc(NCCc3c[nH]c4ccccc34)c3ncn(C(C)C)c3n2)c1 has viability, T/C strictly less than 90%
Result string: 1 (yes)

Query string: Consider COc1cccc2c1C(=O)c1c(O)c3c(c(O)c1C2=O)CC(O)(C(=O)CO)CC3OC1CC(N)C(O)C(C)O1 (stereo not drawn) + Cc1ccccc1N=Nc1ccc(NC(=O)c2ccnn2C)c(C)c1 . Does its viability, T/C lie strictly below 90%?
Result string: 1 (yes)

Query string: Input COc1cc(Nc2ncc3c(n2)-c2ccc(Cl)cc2C(c2c(F)cccc2OC)=NC3)ccc1C(=O)O + Cc1ccccc1N=Nc1ccc(NC(=O)c2ccnn2C)c(C)c1 ; condition: viability, T/C strictly below 90%. Does it hold?
Result string: 1 (yes)

Query string: # TODO verify viability, T/C < 90% strictly for this compound: CC1COCCN1c1cc(C2(S(C)(=N)=O)CC2)nc(-c2ccnc3[nH]ccc23)n1 (stereo not drawn) + Cc1cncc(-c2nc(NCCc3c[nH]c4ccccc34)c3ncn(C(C)C)c3n2)c1
Result string: 0 (no)

Query string: I wonder whether O=C(c1cc(Cc2n[nH]c(=O)c3ccccc23)ccc1F)N1CCN(C(=O)C2CC2)CC1 + Cc1cncc(-c2nc(NCCc3c[nH]c4ccccc34)c3ncn(C(C)C)c3n2)c1 has viability, T/C below 90%. Can you tell?
Result string: 0 (no)

Further cases:
Query string: Is 90% strictly greater than the compound's reported viability, T/C? compound: CC(C)c1c(-c2ccccc2)nc2c(C#N)c[nH]n2c1=O + CC(CO)NC(=O)c1cc(-c2ccc(Cl)cc2)nn(-c2cnn(C)c2)c1=O
Result string: 1 (yes)

Query string: Is the reported viability, T/C for Nc1ncn(C2CC(O)C(CO)O2)c(=O)n1 (stereo not drawn) + Cc1cncc(-c2nc(NCCc3c[nH]c4ccccc34)c3ncn(C(C)C)c3n2)c1 strictly below 90%?
Result string: 1 (yes)

Query string: I'd appreciate it if you could check whether COc1ccc([C@@H](O)c2cc(-c3ncnc4cc(N5CCOCC5)ccc34)c(F)cc2Cl)nn1 + Cc1ccccc1N=Nc1ccc(NC(=O)c2ccnn2C)c(C)c1 has viability, T/C smaller than 90%.
Result string: 0 (no)

Query string: viability, T/C under 90%? Item: COc1cccc2c1C(=O)c1c(O)c3c(c(O)c1C2=O)CC(O)(C(=O)CO)CC3OC1CC(N)C(O)C(C)O1 (stereo not drawn) + CC(CO)NC(=O)c1cc(-c2ccc(Cl)cc2)nn(-c2cnn(C)c2)c1=O
Result string: 1 (yes)

Query string: Please determine if Nc1ccccc1NC(=O)c1ccc(CNC(=O)OCc2cccnc2)cc1 + Cc1cncc(-c2nc(NCCc3c[nH]c4ccccc34)c3ncn(C(C)C)c3n2)c1 is below 90% in terms of viability, T/C.
Result string: 0 (no)

Query string: viability, T/C under 90%? Item: CC1COCCN1c1cc(-c2ccnn2C)c2ccnc(-c3ccn[nH]3)c2n1 (stereo not drawn) + Cc1ccccc1N=Nc1ccc(NC(=O)c2ccnn2C)c(C)c1
Result string: 1 (yes)

---

Tested on: K24384-001-R-PDC complex spheroid growth
Assay: Anticancer human tumor K24384-001-R-PDC cell line growth inhibition [AhR];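 also: percent of DMSO vehicle-treated spheroid viability set as 100%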
Settings: second compound 0.316 µM; first compound 10 µM; stronger effect = lower value
From the text: Multicellular complex tumor spheroid response to aryl hydrocarbon receptor antagonists in combination with a variety of drugs and investigational agents in selected tumor cell lines […] Compounds. […] If the clinical Cmax for an agent had not been determined, the highest concentration tested was 10 microM (Table 1). […]
Binary label based on viability, T/C with cut-off 30%: below gives True, not below gives False.

Look over these answered cases.
Query string: In the record for Nc1ccn(C2OC(CO)C(O)C2(F)F)c(=O)n1 (stereo not given) + Cc1cncc(-c2nc(NCCc3c[nH]c4ccccc34)c3ncn(C(C)C)c3n2)c1 , is viability, T/C less than 30%?
Result string: True

Query string: Could you please tell me whether viability, T/C recorded for NS(=O)(=O)OCC1CC(n2ccc3c(NC4CCc5ccccc54)ncnc32)CC1O (stereo not given) + Cc1cncc(-c2nc(NCCc3c[nH]c4ccccc34)c3ncn(C(C)C)c3n2)c1 is less than 30%?
Result string: True

Query string: In the record for Nc1ccccc1NC(=O)c1ccc(CNC(=O)OCc2cccnc2)cc1 + CC(CO)NC(=O)c1cc(-c2ccc(Cl)cc2)nn(-c2cnn(C)c2)c1=O , is viability, T/C less than 30%?
Result string: True

Next:
Query string: # strict comparison: is reported viability, T/C < 30%? input = COc1cc(C2c3cc4c(cc3C(OC3OC5COC(C)OC5C(O)C3O)C3COC(=O)C23)OCO4)cc(OC)c1O (stereo not given) + CC(CO)NC(=O)c1cc(-c2ccc(Cl)cc2)nn(-c2cnn(C)c2)c1=O
Result string: True

Query string: Consider the molecule COc1cc(C2c3cc4c(cc3C(OC3OC5COC(C)OC5C(O)C3O)C3COC(=O)C23)OCO4)cc(OC)c1O (stereo not given) + Cc1cncc(-c2nc(NCCc3c[nH]c4ccccc34)c3ncn(C(C)C)c3n2)c1 . Is its viability, T/C strictly less than 30%?
Result string: False

---

test system: K24384-001-R-PDC complex spheroid growth; assay: Anticancer human tumor K24384-001-R-PDC cell line growth inhibition [AhR]; details: second compound 10 µM; first compound 1 µM; active means viability on the fitted dose curve at most 10% of control; inactive means the rest;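 also: percent of DMSO vehicle-treated spheroid viability set as 100%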
Classes to choose from: Yes (active), No (inactive)

Query string: Query: recorded result category for NS(=O)(=O)OCC1CC(n2ccc3c(NC4CCc5ccccc54)ncnc32)CC1O (centres undefined) + Cc1cncc(-c2nc(NCCc3c[nH]c4ccccc34)c3ncn(C(C)C)c3n2)c1 in this test
Result string: Yes

Query string: Record lookup: outcome of this test for COc1cccc2c1C(=O)c1c(O)c3c(c(O)c1C2=O)CC(O)(C(=O)CO)CC3OC1CC(N)C(O)C(C)O1 (centres undefined) + Cc1cncc(-c2nc(NCCc3c[nH]c4ccccc34)c3ncn(C(C)C)c3n2)c1 ?
Result string: Yes

Query string: # outcome recorded in this test, key = Nc1ncn(C2CC(O)C(CO)O2)c(=O)n1 (centres undefined) + CC(CO)NC(=O)c1cc(-c2ccc(Cl)cc2)nn(-c2cnn(C)c2)c1=O
Result string: No

Query string: Give the logged outcome of this assay for the following molecule: Nc1ccccc1NC(=O)c1ccc(CNC(=O)OCc2cccnc2)cc1 + Cc1cncc(-c2nc(NCCc3c[nH]c4ccccc34)c3ncn(C(C)C)c3n2)c1
Result string: Yes

---

tested on: K24384-001-R-PDC complex spheroid growth; experiment: Anticancer human tumor K24384-001-R-PDC cell line growth inhibition [AhR]; conditions: second compound 3.16 µM; first compound 0.316 µM; stronger effect = lower value;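 also: percent of DMSO vehicle-treated spheroid viability set as 100%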
endpoint label: viability, T/C (%)
// note: answer is a bare numeric in %

The value of viability, T/C measured for the molecule CC1(C)CCC(CN2CCN(c3ccc(C(=O)NS(=O)(=O)c4ccc(NCC5CCOCC5)c([N+](=O)[O-])c4)c(Oc4cnc5[nH]ccc5c4)c3)CC2)=C(c2ccc(Cl)cc2)C1 + CC(CO)NC(=O)c1cc(-c2ccc(Cl)cc2)nn(-c2cnn(C)c2)c1=O turned out to be 122

New cases:
According to the records, this molecule Nc1ncn(C2CC(O)C(CO)O2)c(=O)n1 (stereo unspecified) + Cc1cncc(-c2nc(NCCc3c[nH]c4ccccc34)c3ncn(C(C)C)c3n2)c1 displays viability, T/C of 67.9

So for CC1COCCN1c1cc(-c2ccnn2C)c2ccnc(-c3ccn[nH]3)c2n1 (stereo unspecified) + Cc1cncc(-c2nc(NCCc3c[nH]c4ccccc34)c3ncn(C(C)C)c3n2)c1 , the logged viability, T/C turned out to be 27.3

The molecule listed as CC1COCCN1c1cc(C2(S(C)(=N)=O)CC2)nc(-c2ccnc3[nH]ccc23)n1 (stereo unspecified) + Cc1cncc(-c2nc(NCCc3c[nH]c4ccccc34)c3ncn(C(C)C)c3n2)c1 has a reported viability, T/C of 70

Entry COc1cc(Nc2ncc3c(n2)-c2ccc(Cl)cc2C(c2c(F)cccc2OC)=NC3)ccc1C(=O)O + CC(CO)NC(=O)c1cc(-c2ccc(Cl)cc2)nn(-c2cnn(C)c2)c1=O , viability, T/C reported as 72.5

// CC1COCCN1c1cc(-c2ccnn2C)c2ccnc(-c3ccn[nH]3)c2n1 (stereo unspecified) + Cc1ccccc1N=Nc1ccc(NC(=O)c2ccnn2C)c(C)c1 : viability, T/C value = 33.4
